Origin of the recorded values: patent US9006250B2

Below is a list of entries, each paired with its recorded pest or weed control at 70 g/ha value.
# System: AMARE: redroot pigweed (Amaranthus retroflexus)
# PROTOCOL_NOTES: Post-Emergent Test II herbicidal activity
# Assay type: in vivo
# CONDITION: post-emergence, 336 h, 70 g ai/ha, 14 days, read-out: Visual Growth Reduction (%) 14 Days After Application AMARE

1) COC(=O)c1nc(-c2ccc3nonc3c2Cl)cc(N)c1Cl :: 95 to 100%
2) COC(=O)c1nc(-c2cc3nonc3cc2F)cc(N)c1Cl :: 95 to 100%
3) COC(=O)c1nc(-c2cc3nsnc3cc2F)cc(N)c1Cl :: 95 to 100%
4) COC(=O)c1nc(-c2ccc3nsnc3c2F)cc(N)c1Cl :: 30 to 44%
5) Nc1c(F)c(-c2ccc3nsnc3c2)nc(C(=O)O)c1Cl :: 95 to 100%
6) COC(=O)c1nc(-c2ccc3nonc3c2C)cc(N)c1Cl :: 95 to 100%

Summary for this molecule, `COC(=O)c1nc(-c2ccc3nonc3c2OC)cc(N)c1Cl` : pest or weed control at 70 g/ha is 60 to 74%

* * *

# System: CHEAL: lambsquarters (Chenopodium album)
# PROTOCOL_NOTES: Post-Emergent Test II herbicidal activity
# Type: in vivo
# CONDITION: post-emergence, 336 h, 35 g ai/ha, 14 days, read-out: Visual Growth Reduction (%) 14 Days After Application CHEAL
Reported values of pest or weed control at 35 g/ha for individual entries

Observe how each entry below is paired with its result.
1. COC(=O)c1nc(-c2ccc3nonc3c2OC)cc(N)c1Cl :: 60 to 74%
2. COC(=O)c1nc(-c2ccc3nonc3c2Cl)cc(N)c1Cl :: 75 to 84%
3. Nc1c(F)c(-c2ccc3nonc3c2)nc(C(=O)O)c1Cl :: 95 to 100%
4. COC(=O)c1nc(-c2ccc3nsnc3c2F)cc(N)c1Cl :: 45 to 59%

Field: next molecule
// sample `COC(=O)c1nc(-c2cc3nonc3cc2F)cc(N)c1Cl` , its pest or weed control at 35 g/ha was 85 to 94%

* * *

Catalogue of pest or weed control at 35 g/ha values
# Tested on: BRSNN: oilseed rape, canola (Brassica napus)
# PROTOCOL_NOTES: Post-Emergent Test II herbicidal activity
# Type: in vivo
# CONDITION: post-emergence, 336 h, 35 g ai/ha, 14 days, read-out: Visual Growth Reduction (%) 14 Days After Application BRSNN
# Text: Post-Emergent Test II: Seeds or nutlets of the desired test plant species were planted in Sun Gro Metro-Mix® 360 planting mixture, which typically has a pH of 6.0 to 6.8 and an organic matter content of about 30 percent, in plastic pots with a surface area of 64 square centimeters. When required to ensure good germination and healthy plants, a fungicide treatment and/or other chemical or physical treatment was applied. […]

For orientation, consider the following solved cases.
1) COc1cc2nonc2cc1-c1cc(N)c(Cl)c(C(=O)O)n1 :: 0 to 29%
2) COC(=O)c1nc(-c2ccc3nonc3c2C)cc(N)c1Cl :: 60 to 74%
3) COC(=O)c1nc(-c2cc3nsnc3cc2F)cc(N)c1Cl :: 95 to 100%

Summary for this compound, `COC(=O)c1nc(-c2ccc3nsnc3c2)c(F)c(N)c1Cl` : pest or weed control at 35 g/ha is 60 to 74%

Lab book: pest or weed control at 35 g/ha of `COC(=O)c1nc(-c2ccc3nonc3c2)c(F)c(N)c1Cl` noted as 60 to 74%

Sure, the documented pest or weed control at 35 g/ha for `Nc1c(F)c(-c2ccc3nonc3c2)nc(C(=O)O)c1Cl` is 60 to 74%
